Entries and their T/C
Tested on: AKR/Lw mice, AKR lymphoma ip, median survival T/C
experimental.details: NCI In Vivo Anticancer Drug Screen. Data for tumor model Lymphoma AKR (Transplanted) (intraperitoneal) in AKR/Lw mice
protocol.conditions: endpoint: median survival time; dose: 100.0 mg/kg/injection; schedule: Q01DX001 (ip); vehicle: saline; higher = longer survival
Toxic doses and inconclusive results are not listed.

Consider the worked cases shown below.
{"compound": "ClC1=C(Cl)C2(Cl)C3(Cl)C(Cl)=C(Cl)C(Cl)(C34OCCO4)C2(Cl)C12OCCO2 (stereo unspecified)", "study.target": "AKR/Lw mice, AKR lymphoma ip, median survival T/C", "T/C": "96 % of control"}
{"compound": "COC(=O)C1(C)CCC(c2ccc(OC)cc2)CC1=O (stereo unspecified)", "study.target": "AKR/Lw mice, AKR lymphoma ip, median survival T/C", "T/C": "105 % of control"}
{"compound": "CCOC(=O)c1ccc(NCC(C)(C)[N+](=O)[O-])cc1", "study.target": "AKR/Lw mice, AKR lymphoma ip, median survival T/C", "T/C": "88 % of control"}
{"compound": "CC(C)(CNc1ccc(C(=O)O)cc1)[N+](=O)[O-]", "study.target": "AKR/Lw mice, AKR lymphoma ip, median survival T/C", "T/C": "102 % of control"}

For the compound O=C1CCSCCN1 , give its measured T/C value.
95 % of control

For the compound COC(=O)C1CC2C(Cl)=C(Cl)C1(Cl)C2(Cl)Cl (stereo unspecified) , give its measured T/C value.
96 % of control
